- system-name: ADCK3 (Homo sapiens)
- Sequence (Q8NI60 163-647): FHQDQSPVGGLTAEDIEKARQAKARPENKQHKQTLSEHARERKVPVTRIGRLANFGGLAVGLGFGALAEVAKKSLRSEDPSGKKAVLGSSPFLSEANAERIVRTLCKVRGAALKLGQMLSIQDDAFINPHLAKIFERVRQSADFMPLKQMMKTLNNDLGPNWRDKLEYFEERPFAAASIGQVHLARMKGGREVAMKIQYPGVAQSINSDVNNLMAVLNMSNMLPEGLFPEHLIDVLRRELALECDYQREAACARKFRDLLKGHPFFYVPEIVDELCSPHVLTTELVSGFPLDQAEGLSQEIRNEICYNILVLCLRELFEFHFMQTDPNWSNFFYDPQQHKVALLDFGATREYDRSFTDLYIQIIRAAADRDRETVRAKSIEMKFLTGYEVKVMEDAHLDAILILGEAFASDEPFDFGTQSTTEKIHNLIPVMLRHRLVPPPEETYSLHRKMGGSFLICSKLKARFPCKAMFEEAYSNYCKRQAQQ
observable: IC50

Report IC50 for Nc1nc(N2CCN(C(=O)COc3ccc(Cl)cc3)CC2)c2nc(-c3cccnc3)sc2n1 [formula (1)] please.
< 10 µM

---

- Test system: murine splenocytes stimulated with α-CD3 antibody
- assay-overview: Cytokine secretion after α-CD3 stimulation
- Assay type: cell-based, Balb/C mice
- condition-summary: Mus musculus, Splenocyte, 24 h, read-out: IC50 for inhibition of IFNγ release
observable: pIC50
Bear in mind: pIC50 is minus log10 of a mol/L concentration; give just that figure.

API: value(readout= pIC50, system= murine splenocytes stimulated with α-CD3 antibody, query= Nc1nc(N2CCN(C(=O)COc3ccc(Cl)cc3)CC2)c2nc(-c3cccnc3)sc2n1 )
6.69

---

- system-name: RIOK2 (Homo sapiens)
- Sequence (Q9BVS4 whole entry): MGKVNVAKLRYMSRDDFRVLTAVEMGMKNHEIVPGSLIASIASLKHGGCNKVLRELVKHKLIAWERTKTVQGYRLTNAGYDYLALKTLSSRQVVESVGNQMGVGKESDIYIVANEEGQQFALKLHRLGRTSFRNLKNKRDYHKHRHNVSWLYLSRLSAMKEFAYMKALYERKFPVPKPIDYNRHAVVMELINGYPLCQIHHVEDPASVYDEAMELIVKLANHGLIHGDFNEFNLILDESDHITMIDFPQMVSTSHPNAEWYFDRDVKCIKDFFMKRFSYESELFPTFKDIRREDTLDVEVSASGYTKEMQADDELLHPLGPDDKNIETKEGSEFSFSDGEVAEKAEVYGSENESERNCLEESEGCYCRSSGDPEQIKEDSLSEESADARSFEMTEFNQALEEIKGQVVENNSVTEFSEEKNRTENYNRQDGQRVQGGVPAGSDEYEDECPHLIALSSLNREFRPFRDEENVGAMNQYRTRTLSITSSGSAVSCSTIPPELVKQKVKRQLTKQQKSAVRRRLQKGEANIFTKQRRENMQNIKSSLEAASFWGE
observable: IC50

Given the entry Nc1nc(N2CCN(C(=O)COc3ccc(Cl)cc3)CC2)c2nc(-c3cccnc3)sc2n1 , what IC50 was observed with RIOK2 (Homo sapiens)?
< 10 µM

---

- system-name: LOK (Homo sapiens, UniProt O94804)
- Sequence (O94804 whole entry): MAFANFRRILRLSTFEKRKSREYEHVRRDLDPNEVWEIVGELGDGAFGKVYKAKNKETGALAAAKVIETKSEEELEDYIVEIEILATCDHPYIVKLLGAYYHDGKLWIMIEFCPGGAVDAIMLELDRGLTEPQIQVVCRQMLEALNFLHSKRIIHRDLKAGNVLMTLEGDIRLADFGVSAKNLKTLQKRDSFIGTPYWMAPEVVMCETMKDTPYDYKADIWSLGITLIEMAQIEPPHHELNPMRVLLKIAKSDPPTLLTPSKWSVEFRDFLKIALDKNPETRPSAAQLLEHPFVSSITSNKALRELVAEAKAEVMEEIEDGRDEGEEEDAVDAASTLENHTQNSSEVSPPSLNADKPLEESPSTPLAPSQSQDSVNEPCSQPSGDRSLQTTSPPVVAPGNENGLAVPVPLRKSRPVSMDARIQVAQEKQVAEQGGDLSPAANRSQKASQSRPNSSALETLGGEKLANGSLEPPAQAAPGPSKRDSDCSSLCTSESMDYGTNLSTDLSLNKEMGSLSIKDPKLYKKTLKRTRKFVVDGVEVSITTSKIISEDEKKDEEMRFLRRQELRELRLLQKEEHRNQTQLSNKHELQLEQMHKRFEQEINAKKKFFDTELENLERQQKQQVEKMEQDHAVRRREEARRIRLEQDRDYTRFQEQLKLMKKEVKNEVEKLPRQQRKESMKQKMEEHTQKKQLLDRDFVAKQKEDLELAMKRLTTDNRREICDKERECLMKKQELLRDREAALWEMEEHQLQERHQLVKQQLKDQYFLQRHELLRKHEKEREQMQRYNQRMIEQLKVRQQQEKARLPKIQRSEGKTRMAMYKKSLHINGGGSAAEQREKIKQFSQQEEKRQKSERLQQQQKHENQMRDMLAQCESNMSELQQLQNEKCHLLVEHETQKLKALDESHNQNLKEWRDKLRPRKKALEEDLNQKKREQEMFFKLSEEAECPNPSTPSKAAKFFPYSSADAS
pIC50: −log10 of the molar value.
observable: pIC50

Item Nc1nc(N2CCN(C(=O)COc3ccc(Cl)cc3)CC2)c2nc(-c3cccnc3)sc2n1 with LOK (Homo sapiens, UniProt O94804) - pIC50?
> 5.00

---

- system-name: PIK3CB (Homo sapiens, UniProt P42338)
- Construct: made in house; host or cells: E. coli BL21-derived host (T7 phage) or HEK-293
- Sequence (P42338 whole entry): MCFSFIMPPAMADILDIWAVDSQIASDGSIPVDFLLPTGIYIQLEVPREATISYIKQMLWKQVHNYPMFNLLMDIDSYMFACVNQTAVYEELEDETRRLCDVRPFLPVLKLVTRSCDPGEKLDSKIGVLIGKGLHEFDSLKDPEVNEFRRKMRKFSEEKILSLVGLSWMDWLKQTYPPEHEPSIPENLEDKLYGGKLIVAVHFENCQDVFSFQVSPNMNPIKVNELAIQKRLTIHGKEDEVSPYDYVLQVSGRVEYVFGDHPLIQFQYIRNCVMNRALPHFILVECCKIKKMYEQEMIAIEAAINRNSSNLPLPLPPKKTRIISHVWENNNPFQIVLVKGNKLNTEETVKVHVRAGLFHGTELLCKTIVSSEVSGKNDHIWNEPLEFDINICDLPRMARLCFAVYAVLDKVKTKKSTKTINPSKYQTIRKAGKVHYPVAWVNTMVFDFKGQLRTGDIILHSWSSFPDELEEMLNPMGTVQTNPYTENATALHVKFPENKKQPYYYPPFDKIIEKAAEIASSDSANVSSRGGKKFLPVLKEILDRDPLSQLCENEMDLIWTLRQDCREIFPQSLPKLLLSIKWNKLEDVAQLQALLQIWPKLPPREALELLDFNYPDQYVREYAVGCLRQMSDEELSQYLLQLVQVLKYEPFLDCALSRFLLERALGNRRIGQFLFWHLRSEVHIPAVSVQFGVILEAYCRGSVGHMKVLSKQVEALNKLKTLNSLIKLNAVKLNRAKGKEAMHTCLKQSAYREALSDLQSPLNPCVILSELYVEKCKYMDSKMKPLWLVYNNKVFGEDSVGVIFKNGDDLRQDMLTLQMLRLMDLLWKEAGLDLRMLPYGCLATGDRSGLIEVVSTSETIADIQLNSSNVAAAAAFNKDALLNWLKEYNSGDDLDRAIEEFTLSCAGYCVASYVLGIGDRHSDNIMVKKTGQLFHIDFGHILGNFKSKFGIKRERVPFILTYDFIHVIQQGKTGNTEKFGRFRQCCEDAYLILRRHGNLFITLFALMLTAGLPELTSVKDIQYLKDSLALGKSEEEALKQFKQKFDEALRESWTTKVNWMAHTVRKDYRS
- assay-overview: Kinase-tagged phage competition binding assay (qPCR), 382-kinase library
- condition-summary: stated for the 8 kinases of Table 1
pIC50: −log10 of the molar value.
observable: pIC50

Lab request: please report pIC50 under test system PIK3CB (Homo sapiens, UniProt P42338) for Nc1nc(N2CCN(C(=O)COc3ccc(Cl)cc3)CC2)c2nc(-c3cccnc3)sc2n1 [formula (1)]
> 5.00

---

- system-name: PAK1 (Homo sapiens)
- Sequence (Q13153 whole entry): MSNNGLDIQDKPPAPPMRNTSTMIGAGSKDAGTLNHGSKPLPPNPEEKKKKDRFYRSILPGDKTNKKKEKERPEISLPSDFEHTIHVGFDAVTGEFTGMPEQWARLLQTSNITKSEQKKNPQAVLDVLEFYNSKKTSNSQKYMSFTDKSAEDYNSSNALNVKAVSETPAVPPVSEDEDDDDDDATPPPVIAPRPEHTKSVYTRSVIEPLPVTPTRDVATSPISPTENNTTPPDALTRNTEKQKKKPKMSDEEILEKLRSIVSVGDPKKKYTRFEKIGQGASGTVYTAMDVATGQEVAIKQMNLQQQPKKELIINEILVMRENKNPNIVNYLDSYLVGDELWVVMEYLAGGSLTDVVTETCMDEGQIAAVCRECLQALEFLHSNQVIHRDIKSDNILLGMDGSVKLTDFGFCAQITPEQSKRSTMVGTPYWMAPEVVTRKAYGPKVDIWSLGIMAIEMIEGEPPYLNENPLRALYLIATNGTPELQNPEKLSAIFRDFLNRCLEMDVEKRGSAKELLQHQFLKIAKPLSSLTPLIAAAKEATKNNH
pIC50: −log10 of the molar value.
observable: pIC50

Return pIC50 measured with PAK1 (Homo sapiens) given this compound: Nc1nc(N2CCN(C(=O)COc3ccc(Cl)cc3)CC2)c2nc(-c3cccnc3)sc2n1
> 5.00

---

- system-name: TESK1 (Homo sapiens, UniProt Q15569)
- Sequence (Q15569 whole entry): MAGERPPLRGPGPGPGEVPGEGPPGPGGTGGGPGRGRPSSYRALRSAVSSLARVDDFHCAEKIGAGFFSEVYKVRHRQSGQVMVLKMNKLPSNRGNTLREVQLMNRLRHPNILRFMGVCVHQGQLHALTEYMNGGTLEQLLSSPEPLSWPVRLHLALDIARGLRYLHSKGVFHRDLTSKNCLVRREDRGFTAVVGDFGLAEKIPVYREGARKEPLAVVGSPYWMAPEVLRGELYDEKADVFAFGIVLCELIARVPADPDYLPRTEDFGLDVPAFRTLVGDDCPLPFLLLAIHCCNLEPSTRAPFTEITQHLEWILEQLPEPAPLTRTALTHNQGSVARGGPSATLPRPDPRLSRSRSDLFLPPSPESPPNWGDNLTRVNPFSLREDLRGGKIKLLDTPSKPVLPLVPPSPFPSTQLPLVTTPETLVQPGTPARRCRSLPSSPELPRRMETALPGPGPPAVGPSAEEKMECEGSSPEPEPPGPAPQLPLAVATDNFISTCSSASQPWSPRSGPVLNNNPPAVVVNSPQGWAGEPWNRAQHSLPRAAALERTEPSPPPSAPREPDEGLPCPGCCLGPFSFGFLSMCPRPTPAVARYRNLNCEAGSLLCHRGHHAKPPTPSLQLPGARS
pIC50: −log10 of the molar value.
observable: pIC50

Name the recorded pIC50 for Nc1nc(N2CCN(C(=O)COc3ccc(Cl)cc3)CC2)c2nc(-c3cccnc3)sc2n1 [formula (1)] .
> 5.00

---

- Tested on: Peripheral blood mononuclear cells (PBMCs) mixed with mitomycin C treated RPMI1788 cells
- assay-overview: Mixed lymphocyte reaction (MLR) assay, 3H-thymidine uptake
- condition-summary: RPMI-1788, 144 h, read-out: IC50 MLR, 6 days culture
pIC50: −log10 of the molar value.
molecules and their reported pIC50

1) Nc1nc(N2CCN(C(=O)COc3ccc(F)cc3)CC2)c2nc(-c3cccnc3)sc2n1 [formula (4)] : > 7.30
2) CC(=O)Nc1nc(C)c(-c2ccc(Cl)c(S(=O)(=O)NCCO)c2)s1 [PIK93, reference compound] : 6.40

Next, consider the following molecule.
Give the measured pIC50 of Nc1nc(N2CCN(C(=O)COc3ccc(Cl)cc3)CC2)c2nc(-c3cccnc3)sc2n1 [formula (1)] .
> 7.30
